- Test system: RAW264.7
- test name: Cytotoxicity against mouse RAW264.7 cells at 50 uM after 48 hrs by MTT assay
- Type: cell-based
- test context: raw264.7, 48 h

{"columns": ["molecular string", "Activity"],
 "data": [
  ["Cc1cc(O)cc2c1CC[C@@H](C)[C@]2(C)CC(=O)c1ccoc1", "Non-Toxic"],
  ["CO[C@@]12C[C@@H](C)[C@]3(C[C@@H](c4ccoc4)OC3=O)[C@@H]3CCCC(=C31)C(=O)O2", "Non-Toxic"],
  ["COC(=O)[C@@]1(C)C2=C(CC[C@H]1O)[C@@]1(C[C@@H](c3ccoc3)OC1=O)[C@H](C)CC2", "Non-Toxic"]
]}
